B1: TSN (parent)
chain: AFVVYLETETLVTREAVTEILGIE

Variants of: B1
Experiment: protein stability index of a GFP-peptide fusion (GPS, HEK-293T) (PSI 1-6); higher = more stable;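 also: lentivirally expressed fusions sorted by FACS into six bins by GFP to DsRed ratio, PSI derived from sequencing read proportions per bin multiplied by bin number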
Details: c terminus: a fixed tail appended
Quick reference: protein stability index of the listed items.
test.readout: protein stability index

mutations=T18F test_readout="protein stability index" reported_value=2.48
mutations=I23D test_readout="protein stability index" reported_value=1.42
mutations=L11N test_readout="protein stability index" reported_value=2.14
mutations=A16C test_readout="protein stability index" reported_value=3.53
mutations=V3Y test_readout="protein stability index" reported_value=2.86
mutations=I20Y test_readout="protein stability index" reported_value=1.56
mutations=A16D test_readout="protein stability index" reported_value=1.97
mutations=E24L test_readout="protein stability index" reported_value=3.3
mutations=V12M test_readout="protein stability index" reported_value=3.5
mutations=E7D test_readout="protein stability index" reported_value=3.68
mutations=F2V test_readout="protein stability index" reported_value=1
mutations=I23W test_readout="protein stability index" reported_value=1.79
mutations=L21I test_readout="protein stability index" reported_value=2.57
mutations=Y5T test_readout="protein stability index" reported_value=3.32
mutations=E24Q test_readout="protein stability index" reported_value=3.13
mutations=V3D test_readout="protein stability index" reported_value=2.37
mutations=E7K test_readout="protein stability index" reported_value=2.63
mutations=L11T test_readout="protein stability index" reported_value=1.64
mutations=E19N test_readout="protein stability index" reported_value=3.7
mutations=A16V test_readout="protein stability index" reported_value=3.75
mutations=E7Q test_readout="protein stability index" reported_value=3.51
mutations=T10C test_readout="protein stability index" reported_value=2.82
mutations=E19P test_readout="protein stability index" reported_value=2.44
mutations=L6Q test_readout="protein stability index" reported_value=1.84
mutations=E7Y test_readout="protein stability index" reported_value=2.77
mutations=T10L test_readout="protein stability index" reported_value=2.29
mutations=A16T test_readout="protein stability index" reported_value=2.66
mutations=T13C test_readout="protein stability index" reported_value=2.48
mutations=A1L test_readout="protein stability index" reported_value=3.38
mutations=E19K test_readout="protein stability index" reported_value=3.64
mutations=F2M test_readout="protein stability index" reported_value=2.88
mutations=E19S test_readout="protein stability index" reported_value=1.96
mutations=T10Y test_readout="protein stability index" reported_value=2.36
mutations=I20Q test_readout="protein stability index" reported_value=5.44
mutations=E9A test_readout="protein stability index" reported_value=2.65
mutations=E24G test_readout="protein stability index" reported_value=2.84
mutations=R14N test_readout="protein stability index" reported_value=4.51
mutations=V3S test_readout="protein stability index" reported_value=1.15
mutations=V12E test_readout="protein stability index" reported_value=2.35
mutations=R14C test_readout="protein stability index" reported_value=3.25
mutations=E15S test_readout="protein stability index" reported_value=2.65
mutations=T8C test_readout="protein stability index" reported_value=2.57
mutations=V4L test_readout="protein stability index" reported_value=2.21
mutations=A16E test_readout="protein stability index" reported_value=2.77
mutations=T13R test_readout="protein stability index" reported_value=3.01
mutations=L11H test_readout="protein stability index" reported_value=3.08
